Target: T1, murine CXCR5 (murine, UniProt Q04683 1-374)
T1 construct: whole, on cells; Endogenous receptor on mouse spleen cells cultured with LPS
T1 sequence (looked up): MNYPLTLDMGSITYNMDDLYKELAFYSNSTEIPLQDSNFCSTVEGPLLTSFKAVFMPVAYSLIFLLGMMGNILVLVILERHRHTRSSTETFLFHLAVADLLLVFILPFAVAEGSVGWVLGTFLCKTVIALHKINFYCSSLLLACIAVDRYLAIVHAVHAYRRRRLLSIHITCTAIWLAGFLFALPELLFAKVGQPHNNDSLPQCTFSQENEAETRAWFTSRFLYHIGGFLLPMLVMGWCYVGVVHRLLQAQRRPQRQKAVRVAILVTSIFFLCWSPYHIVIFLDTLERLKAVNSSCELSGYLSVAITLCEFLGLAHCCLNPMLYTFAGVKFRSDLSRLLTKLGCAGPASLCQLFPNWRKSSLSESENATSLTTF
Assay: flow cytometry on LPS-cultured mouse spleen cells, IgG titration
Description: In this example, mouse spleen cells were harvested from either C57B1/6 or athymic nu/nu mice. Cells were cultured at 2×10⁶ per ml with LPS at 10 micrograms per ml in RPMI+10% FCS for up to 4 days at 37° C. in 5% CO2. […] The cells were resuspended in a final volume of 30 μl FACS Buffer and analyzed using the Intellicyt Flow Cytometer. […]
Each entry below carries its recorded pEC50.
Worth noting: pEC50 values are minus log10 of concentrations stated in mol/L.

{"BINDER": "16F8 (antibody, V domains shown, tested as human IgG) VH: EVQLLESGGGLVQPGGSLRLSCAASGFTFSSYGMHWVRQAPGKGLEWVAVISYDGSNKYYADSVKGRFTISRDNSKNTLYLQLNSLRAEDTAVYYCARGQNLDYWGQGTLVTVSS VL: QPVLTQPASVSGSPGQSITISCTGTSSDVGGYNYISWYQQHPGKAPKLMIYEVSNRPSGVSNRFSGSKSGNTASLTISGLQAEDEADYYCSSYRSSSTQVFGGGTKLTVL", "pEC50": 7.82}

Would you kindly share the measured pEC50 for 11G3 (antibody, V domains shown, tested as human IgG) VH: EVQLVQSGGGVVQPGRSLRLSCAASGFTFSSYAMHWVRQAPGKGLEWVAVISYDGSNKYYADSVKGRFTISRDNSKNTLYLQMNSLRAEDTAVYYCARLTRGSDYYGSGRSMNDYWGQGTLVTVSS VL: DIVMTQTPLSLPVTLGQPASISCRSSQSLVHSDGNTYLNWFQQRPGQSPRRLIYKVSNRDSGVPDRFSGSGSGTDFTLKISRVEAEDVGVYYCMQGTHWPPTFGQGTKVEIK ?
7.43

Please look up its pEC50: 13E4 (antibody, V domains shown, tested as human IgG) VH: QITLKESGGGVVQPGRSLRLSCAASGFTFSSYGMHWVRQAPGKGLEWVAVISYDGSNKYYADSVKGRFTISRDNSKNTLYLQMNSLRAEDTAVYYCANNGWATYPDYWGQGTLVTVSS VL: QPVLTQPASVSGSPGQSITISCTGTSSDVGGYNYVSWYQQHPGKAPKLMIYDVSNRPSGVSNRFSGSKSGNTASLTISGLQAEDEADYYCSSYTSSSTLVFGGGTKLTVL
8.26

May I ask what pEC50 has been recorded for 16F9 (antibody, V domains shown, tested as human IgG) VH: EVQLVESGGEVKKPGASVKLSCKSSGYTFTSYYMHWVRQAPGQGLEWMGIINPSGGSTSSAQKFQGRVTMTRDTSTRTVYMELSSLRSEDTAVYYCARGAPNWNYARTLFDYWGQGTLVTVSS VL: SYELTQPRSVSGSPGQSVTISCTGTSSDVGGYNSVSWYQQHPGKAPKLMIYDVSKRPSGVPDRFSGSKSGNTASLTISGLQAEDEADYYCSSYSSSTTHVVFGGGTKLTVL ?
8.51

Values compiled from patent US20160053014A1.
